The measurements presented in this section are drawn from patent US8586751B2.

Consider the following compounds and their measured pIC50 readings.
System: Ramos B cells with beta-lactamase reporter gene under control of an NFAT response element
Assay: NFAT-bla RA1 Reporter Assay (Ramos-NFAT)
Assay type: cell-based, human
Settings: Homo sapiens, Ramos, read-out: IMM Ramos-NFAT (IC50)
pIC50: −log10 of the molar value.
RECORDED_ENDPOINT: pIC50

{"COMPOUND": "CN1CCC(c2ccc(Nc3nc(N4CCCCC4)c(F)cc3C(N)=O)cc2)CC1", "RECORDED_ENDPOINT": "pIC50", "NUMERIC_RESULT": 7.00}
{"COMPOUND": "CN1CCCC(c2ccc(Nc3nc(N4CCC[C@@H](NC(=O)Nc5ncc(F)s5)C4)c(F)cc3C(N)=O)cc2)C1 (stereo partly drawn)", "RECORDED_ENDPOINT": "pIC50", "NUMERIC_RESULT": 7.00}
{"COMPOUND": "CN1CCCC(c2ccc(Nc3nc(N4CCC[C@@H](NC(=O)Nc5nnc(C(F)(F)F)s5)C4)c(F)cc3C(N)=O)cc2)C1 (stereo partly drawn)", "RECORDED_ENDPOINT": "pIC50", "NUMERIC_RESULT": 7.15}
{"COMPOUND": "Cc1csc(NC(=O)N[C@@H]2CCCN(c3ccc(C(N)=O)c(Nc4ccc(N5CCN(C)CC5)cc4)n3)C2)n1", "RECORDED_ENDPOINT": "pIC50", "NUMERIC_RESULT": 7.40}
{"COMPOUND": "C[N+](C)([O-])CCc1ccc(Nc2nc(N3CCC[C@@H](NC(=O)Nc4nccs4)C3)c(F)cc2C(N)=O)cc1", "RECORDED_ENDPOINT": "pIC50", "NUMERIC_RESULT": 5.27}
{"COMPOUND": "CN1CCN(c2ccc(Nc3nc(N4CCC[C@@H](NC(=O)c5ccccc5)C4)c(F)cc3C(N)=O)cc2F)CC1", "RECORDED_ENDPOINT": "pIC50", "NUMERIC_RESULT": 7.15}
{"COMPOUND": "CN1CCN(c2ccc(Nc3nc(N4CCC[C@@H](N5CCCC5=O)C4)c(F)cc3C(N)=O)cc2F)CC1", "RECORDED_ENDPOINT": "pIC50", "NUMERIC_RESULT": 6.77}
{"COMPOUND": "CC(=O)N[C@@H]1CCCN(c2nc(Nc3ccc(N4CCN(C)CC4)cc3)c(C(N)=O)cc2F)C1", "RECORDED_ENDPOINT": "pIC50", "NUMERIC_RESULT": 6.96}
{"COMPOUND": "NC(=O)c1ccc(-c2cccc3c2CCNC3)nc1Nc1ccc(-c2cnco2)cc1", "RECORDED_ENDPOINT": "pIC50", "NUMERIC_RESULT": 6.04}

###

Tested on: Ramos B cells with beta-lactamase reporter gene under control of an NFAT response element
Assay: NFAT-bla RA1 Reporter Assay (Ramos-NFAT)
Format: cell-based, human
Settings: Homo sapiens, Ramos, read-out: IMM Ramos-NFAT (IC50)
pIC50: −log10 of the molar value.
Rule: Fulfilled for pIC50 not less than 7, Not fulfilled for anything less.

{"MOLECULE": "NC(=O)c1ccc(N2CCC[C@@H](NC(=O)c3cccc(-c4nc5ccccc5[nH]4)c3)C2)nc1Nc1ccc(C(=O)N2CCOCC2)cc1", "ANSWER_LABEL": "Not fulfilled"}
{"MOLECULE": "NC(=O)c1cc(F)c(N2CCC[C@@H](NC(=O)Nc3nccs3)C2)nc1Nc1ccc(CCN2CCCC2)cc1", "ANSWER_LABEL": "Fulfilled"}
{"MOLECULE": "NC(=O)c1cc(F)c(C2CCCC(OC(=O)c3ccccc3)C2)nc1Nc1ccc(N2CCOCC2)cc1 (stereo not drawn)", "ANSWER_LABEL": "Not fulfilled"}
